Test system: 991263-137-R1-J2-PDC complex spheroid viability
Assay: Anticancer human tumor 991263-137-R1-J2-PDC patient-derived colon adenocarcinoma cell line growth inhibition [POLQ]
Details: second compound 1 µM; first compound 0.0316 µM; stronger effect = lower value
parameterMeasured: viability, T/C

Please review the following examples before continuing.
{"molecule": "C=CC(=O)N1CCN(c2nc(=O)n(-c3c(C)ccnc3C(C)C)c3nc(-c4c(O)cccc4F)c(F)cc23)C(C)C1 (centres undefined) + Nc1ccc(C#CCN(C(=O)Cc2ncc(C(F)(F)F)cc2C(F)(F)F)c2ccc(F)cc2)nn1", "viability, T/C": "110%"}
{"molecule": "COc1cc(C2c3cc4c(cc3C(OC3OC5COC(C)OC5C(O)C3O)C3COC(=O)C23)OCO4)cc(OC)c1O (centres undefined) + Cc1cccc(N(C)C(=O)C2C(O)CCN2c2nc(C)cc(C(F)(F)F)c2C#N)c1", "viability, T/C": "104%"}
{"molecule": "C=CC(=O)N1CCN(c2nc(=O)n(-c3c(C)ccnc3C(C)C)c3nc(-c4c(O)cccc4F)c(F)cc23)C(C)C1 (centres undefined) + Cc1cccc(N(C)C(=O)C2C(O)CCN2c2nc(C)cc(C(F)(F)F)c2C#N)c1", "viability, T/C": "88%"}

Consider now this further molecule.
input: Using the record for C=CCn1c(=O)c2cnc(Nc3ccc(N4CCN(C)CC4)cc3)nc2n1-c1cccc(C(C)(C)O)n1 + Cc1cccc(N(C)C(=O)C2C(O)CCN2c2nc(C)cc(C(F)(F)F)c2C#N)c1 , state its measured viability, T/C.
output: 96%

====

System: 991263-137-R1-J2-PDC complex spheroid viability
Test: Anticancer human tumor 991263-137-R1-J2-PDC cell line growth inhibition [POLQ];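 also: spheroids exposed to compounds for 7 days before readout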;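 as to viability, T/C: 100% = DMSO vehicle control viability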
Settings: second compound 0.1 µM; first compound 0.316 µM; stronger effect = lower value
parameterMeasured: viability, T/C (%)
Answers are plain numbers, in %.

Please review the following examples before continuing.
{"molecule": "C#Cc1c(F)ccc2cc(O)cc(-c3ncc4c(N5CC6CCC(C5)N6)nc(OCC56CCCN5CC(F)C6)nc4c3F)c12 (configuration not stated) + COC1C(OC(N)=O)C(O)C(Oc2ccc3c(O)c(NC(=O)c4ccc(O)c(CC=C(C)C)c4)c(=O)oc3c2C)OC1(C)C", "uom": "%", "reportedResult": 99.4}
{"molecule": "C=CCn1c(=O)c2cnc(Nc3ccc(N4CCN(C)CC4)cc3)nc2n1-c1cccc(C(C)(C)O)n1 + Cc1cccc(N(C)C(=O)C2C(O)CCN2c2nc(C)cc(C(F)(F)F)c2C#N)c1", "uom": "%", "reportedResult": 108}

Look up viability, T/C for the entries below, preserving their order.
1. CC1COCCN1c1cc(C2(S(C)(=N)=O)CC2)nc(-c2ccnc3[nH]ccc23)n1 (configuration not stated) + Nc1ccc(C#CCN(C(=O)Cc2ncc(C(F)(F)F)cc2C(F)(F)F)c2ccc(F)cc2)nn1
2. O=C(c1cc(Cc2n[nH]c(=O)c3ccccc23)ccc1F)N1CCN(C(=O)C2CC2)CC1 + Cc1cccc(N(C)C(=O)C2C(O)CCN2c2nc(C)cc(C(F)(F)F)c2C#N)c1
3. CCc1cc2c(N3CCc4c(cc(Cn5ccnc5)cc4-c4cn(C)nc4C(F)(F)F)C3=O)cc(C)nc2c(OC)n1 + Nc1ccc(C#CCN(C(=O)Cc2ncc(C(F)(F)F)cc2C(F)(F)F)c2ccc(F)cc2)nn1
4. COc1cccc(OCCCN)c1-c1cc(Nc2cnc(C#N)cn2)n[nH]1 + Cc1cccc(N(C)C(=O)C2C(O)CCN2c2nc(C)cc(C(F)(F)F)c2C#N)c1
5. COc1cc(C2c3cc4c(cc3C(OC3OC5COC(C)OC5C(O)C3O)C3COC(=O)C23)OCO4)cc(OC)c1O (configuration not stated) + COC1C(OC(N)=O)C(O)C(Oc2ccc3c(O)c(NC(=O)c4ccc(O)c(CC=C(C)C)c4)c(=O)oc3c2C)OC1(C)C
6. O=C(Nc1ccc(O)c(NS(=O)(=O)c2ccc(F)cc2)c1)c1ccc(-c2ccccc2)cc1 + Cc1cccc(N(C)C(=O)C2C(O)CCN2c2nc(C)cc(C(F)(F)F)c2C#N)c1

output:
1: 93.9; 2: 93.2; 3: 102; 4: 62.2; 5: 118; 6: 113

Look up viability, T/C for the entries below, preserving their order.
1. C=CCn1c(=O)c2cnc(Nc3ccc(N4CCN(C)CC4)cc3)nc2n1-c1cccc(C(C)(C)O)n1 + Nc1ccc(C#CCN(C(=O)Cc2ncc(C(F)(F)F)cc2C(F)(F)F)c2ccc(F)cc2)nn1
2. COc1cccc(OCCCN)c1-c1cc(Nc2cnc(C#N)cn2)n[nH]1 + Nc1ccc(C#CCN(C(=O)Cc2ncc(C(F)(F)F)cc2C(F)(F)F)c2ccc(F)cc2)nn1
3. O=C(Nc1ccc(O)c(NS(=O)(=O)c2ccc(F)cc2)c1)c1ccc(-c2ccccc2)cc1 + Nc1ccc(C#CCN(C(=O)Cc2ncc(C(F)(F)F)cc2C(F)(F)F)c2ccc(F)cc2)nn1
4. CCc1cc2c(N3CCc4c(cc(Cn5ccnc5)cc4-c4cn(C)nc4C(F)(F)F)C3=O)ccnc2c(OC)n1 + Cc1cccc(N(C)C(=O)C2C(O)CCN2c2nc(C)cc(C(F)(F)F)c2C#N)c1

output:
1: 103; 2: 57.8; 3: 108; 4: 97.7

====

System: 991263-137-R1-J2-PDC complex spheroid viability
Test: Anticancer human tumor 991263-137-R1-J2-PDC cell line growth inhibition [POLQ];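 also: spheroids exposed to compounds for 7 days before readout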;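 as to viability, T/C: 100% = DMSO vehicle control viability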
Conditions: second compound 0.1 µM; first compound 3.16 µM; stronger effect = lower value
parameterMeasured: viability, T/C
The number alone won't do; follow it with the unit.

Please review the following examples before continuing.
{"molecule": "COc1cc(C2c3cc4c(cc3C(OC3OC5COC(C)OC5C(O)C3O)C3COC(=O)C23)OCO4)cc(OC)c1O (stereo not drawn) + Cc1cccc(N(C)C(=O)C2C(O)CCN2c2nc(C)cc(C(F)(F)F)c2C#N)c1", "viability, T/C": "86.3%"}
{"molecule": "O=C(c1cc(Cc2n[nH]c(=O)c3ccccc23)ccc1F)N1CCN(C(=O)C2CC2)CC1 + Cc1cccc(N(C)C(=O)C2C(O)CCN2c2nc(C)cc(C(F)(F)F)c2C#N)c1", "viability, T/C": "87.1%"}

Consider now this further molecule.
input: Using the record for CC1COCCN1c1cc(C2(O)CC3CCC(C2)O3)c2cnn(-c3ccn[nH]3)c2n1 (stereo not drawn) + Cc1cccc(N(C)C(=O)C2C(O)CCN2c2nc(C)cc(C(F)(F)F)c2C#N)c1 , state its measured viability, T/C.
output: 46.4%

====

Hi there, I'd appreciate the recorded IC50 for every entry that follows.
Tested on: 991263-137-R1-J2-PDC complex spheroid viability
Test: Anticancer human tumor 991263-137-R1-J2-PDC cell line growth inhibition [POLQ];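 also: spheroids exposed to compounds for 7 days before readout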
Settings: curve of first compound; second compound 0.1 µM

Please review the following examples before continuing.
{"molecule": "CC1COCCN1c1cc(C2(S(C)(=N)=O)CC2)nc(-c2ccnc3[nH]ccc23)n1 (stereo not given) + COC1C(OC(N)=O)C(O)C(Oc2ccc3c(O)c(NC(=O)c4ccc(O)c(CC=C(C)C)c4)c(=O)oc3c2C)OC1(C)C", "IC50": "> 10 µM"}
{"molecule": "O=C(Nc1ccc(O)c(NS(=O)(=O)c2ccc(F)cc2)c1)c1ccc(-c2ccccc2)cc1 + Cc1cccc(N(C)C(=O)C2C(O)CCN2c2nc(C)cc(C(F)(F)F)c2C#N)c1", "IC50": "> 10 µM"}
{"molecule": "CC[C@@]1(O)C(=O)OCc2c1cc1n(c2=O)Cc2cc3c(CN(C)C)c(O)ccc3nc2-1 + Cc1cccc(N(C)C(=O)C2C(O)CCN2c2nc(C)cc(C(F)(F)F)c2C#N)c1", "IC50": "> 0.1 µM"}

Look up IC50 for the entries below, preserving their order.
1. CCc1cc2c(N3CCc4c(cc(Cn5ccnc5)cc4-c4cn(C)nc4C(F)(F)F)C3=O)cc(C)nc2c(OC)n1 + Nc1ccc(C#CCN(C(=O)Cc2ncc(C(F)(F)F)cc2C(F)(F)F)c2ccc(F)cc2)nn1
2. CC1COCCN1c1cc(C2(S(C)(=N)=O)CC2)nc(-c2ccnc3[nH]ccc23)n1 (stereo not given) + Cc1cccc(N(C)C(=O)C2C(O)CCN2c2nc(C)cc(C(F)(F)F)c2C#N)c1

output:
> 10 µM
> 10 µM

====

Hi there, I'd appreciate the recorded viability, T/C for every entry that follows.
Tested on: 991263-137-R1-J2-PDC complex spheroid viability
Assay: Anticancer human tumor 991263-137-R1-J2-PDC cell line growth inhibition [POLQ];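 also: spheroids exposed to compounds for 7 days before readout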;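 as to viability, T/C: 100% = DMSO vehicle control viability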
Details: second compound 1 µM; first compound 0.0316 µM; stronger effect = lower value
Description: Multicellular complex tumor spheroid response to Polymerase (POL) inhibitors (novobiocin, ART-558, RP6685) in combination with a variety of drugs and investigational agents in selected tumor cell lines The POL inhibitors (novobiocin, ART-558, and RP6685) were evaluated both individually and in combination with standard of care and investigational anticancer small molecules within a complex spheroid model of solid tumors. . […]
Numbers only, in %.

Please review the following examples before continuing.
{"molecule": "CCCS(=O)(=O)Nc1ccc(F)c(C(=O)c2c[nH]c3ncc(-c4ccc(Cl)cc4)cc23)c1F + Nc1ccc(C#CCN(C(=O)Cc2ncc(C(F)(F)F)cc2C(F)(F)F)c2ccc(F)cc2)nn1", "reportedResult": 93.9}
{"molecule": "CCc1cc2c(N3CCc4c(cc(Cn5ccnc5)cc4-c4cn(C)nc4C(F)(F)F)C3=O)cc(C)nc2c(OC)n1 + Cc1cccc(N(C)C(=O)C2C(O)CCN2c2nc(C)cc(C(F)(F)F)c2C#N)c1", "reportedResult": 100}

Look up viability, T/C for the entries below, preserving their order.
1. COc1ccc([C@@H](O)c2cc(-c3ncnc4cc(N5CCOCC5)ccc34)c(F)cc2Cl)nn1 + COC1C(OC(N)=O)C(O)C(Oc2ccc3c(O)c(NC(=O)c4ccc(O)c(CC=C(C)C)c4)c(=O)oc3c2C)OC1(C)C
2. CC(C)n1c(=O)n(C)c2cnc3cc(F)c(-c4ccc(OCCCN5CCCCC5)nc4)cc3c21 + Nc1ccc(C#CCN(C(=O)Cc2ncc(C(F)(F)F)cc2C(F)(F)F)c2ccc(F)cc2)nn1

output:
[95.3, 105]
